Reference for the values: the supplement of paper PMC10567573

B1: KLHL14 (parent)
chain: YVIGGRNETGYLSSVECYNLETNE

Variants of: B1
EXPERIMENT NOTES: protein stability index of a GFP-peptide fusion (GPS, HEK-293T) (PSI 1-6); higher = more stable;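 also: lentivirally expressed fusions sorted by FACS into six bins by GFP to DsRed ratio, PSI derived from sequencing read proportions per bin multiplied by bin number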
ASSAY CONDITIONS: c terminus: a fixed tail appended
Give rule met when the value for protein stability index is at least 2. Give rule not met when it is less.

Below, 3 variants whose answers are already recorded.
MUTATION KEY: S14K
GROUP: rule not met
--
MUTATION KEY: G4Y
GROUP: rule met
--
MUTATION KEY: G5I
GROUP: rule met

## Task For this variant, is measured protein stability index 2 or higher? I3G
## Result rule met

## Task Record Y1A ; criterion: protein stability index no lower than 2. Met?
## Result rule met

## Task Decide: is the reported value of protein stability index for S13A equal to or greater than 2?
## Result rule not met

## Task Please indicate if the recorded protein stability index for S13Q meets or exceeds 2.
## Result rule not met

## Task Check this variant for protein stability index at or above 2: Y1N
## Result rule met

## Task Could you tell me if the measured protein stability index of N19S reaches 2 or more?
## Result rule not met

## Task Check if protein stability index >= 2 (inclusive). Item: T22Y
## Result rule met

## Task Does the variant G4K have recorded protein stability index that is 2 or more?
## Result rule met
